// data source = patent US10323027B2

system_under_test: human M1 receptor (hCHRM1) (Homo sapiens, UniProt P11229)
Construct: expressed in transfected cells
Sequence (P11229 whole entry): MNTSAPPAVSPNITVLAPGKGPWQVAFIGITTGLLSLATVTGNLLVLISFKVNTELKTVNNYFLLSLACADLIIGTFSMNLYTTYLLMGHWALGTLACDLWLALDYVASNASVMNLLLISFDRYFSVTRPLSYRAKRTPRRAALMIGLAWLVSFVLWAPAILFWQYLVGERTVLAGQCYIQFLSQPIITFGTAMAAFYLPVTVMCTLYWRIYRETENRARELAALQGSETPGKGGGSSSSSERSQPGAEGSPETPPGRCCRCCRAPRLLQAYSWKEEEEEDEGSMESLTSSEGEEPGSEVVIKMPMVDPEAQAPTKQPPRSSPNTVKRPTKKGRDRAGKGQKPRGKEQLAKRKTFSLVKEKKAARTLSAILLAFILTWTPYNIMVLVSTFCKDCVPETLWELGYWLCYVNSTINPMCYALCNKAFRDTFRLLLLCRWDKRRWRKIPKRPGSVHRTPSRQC
method_summary: Measurement of M1 receptor positive allosteric modulator (M1PAM) activity, Ca2+ fluorescence by FLIPRtetra (Experimental Example 1)
Type: cell-based
experimental_conditions: 10 μM test compound, 100% = acetylcholine 1 μM, 0% = DMSO
endpoint: activity (%) at 10 μM
Write it as a number; the unit % goes unstated.

Cc1cc2c(cc1Cc1ccc(-n3cccn3)nc1)C(=O)N([C@H]1CCCC[C@@H]1O)CO2 (relative stereo)
108
Cc1cc2c(cc1Cc1ccc(-c3cn(C)nn3)nc1)C(=O)N(CC1CCCO1)CO2 (stereo not shown)
105
O=C1NCOc2c1cc(Cc1ccc(Cl)nc1)c1ccccc21
97

Next, consider the following compound.
Exam item: Answer with reported activity (%) at 10 μM of Cc1ccc(Cc2cc3c(c4ccccc24)OCN([C@H]2COCC[C@@H]2O)C3=O)cn1 [Example 133]
Marked response: 91
